Tested on: EKVX
assay.details: NCI tumour cell line growth inhibition, 48 h
Activity calls are given as the source filed them. Rule as the data show it: active = GI50 up to about 1.1 µM and inactive = higher.
# GI50 per entry
experimental.endpoint: GI50

compound=Cc1cccc2oc3c(CC(=O)O)cccc3c(=O)c12 experimental_result="> 100 µM (inactive)"
compound="Cc1cn(C2CC(N=[N+]=[N-])C(CO[Si](C)(C)C(C)(C)C)O2)c(=O)[nH]c1=O (stereo unspecified)" experimental_result="23.5 µM (inactive)"
compound="COC1CC2C=CC3C4OC2(/C(C)=C/C(C)C(C(C)O)OC1=O)C3C(O)C(C)C4OC(=O)c1ccc[nH]1 (stereo unspecified)" experimental_result="63.4 µM (inactive)"
compound=COc1cc2c(/C=C3/C(=O)N(C)c4ccccc43)c(Cl)[nH]c2cc1C experimental_result="0.641 µM (active)"
compound=CC(=O)NCCc1c[nH]c2ccc(Cl)cc12 experimental_result="> 100 µM (inactive)"
compound=C/C(=C\c1ccccc1)C(=O)NCc1ccc(C(=O)NCCc2ccccc2)cc1 experimental_result="22.5 µM (inactive)"
compound="CCOC(OC(C)=O)[C@@H]1C=C[C@H](C)N(c2ccc([N+](=O)[O-])cc2)O1 (stereo partly specified)" experimental_result="16.1 µM (inactive)"
compound=N#Cc1ccc(/C=N/NC(=O)CSCC(=O)N/N=C/c2ccc(C#N)cc2)cc1 experimental_result="> 100 µM (inactive)"
compound=C=C1C[C@@H]2O[C@H]3[C@H]4[C@@H](C[C@@H](C)[C@@H](OC(C)=O)[C@H]42)[C@@H](C)CO[C@@]3(C)[C@H](OC(=O)CCCCCCC)C[C@H]1O experimental_result="13.9 µM (inactive)"
compound=CC1=C/C(=C2/N=C(N(C)C)SS2)C(C)=N1.[O-][Cl+3]([O-])([O-])O experimental_result="> 100 µM (inactive)"
compound=C=C(C)C[C@H](Sc1nc2ccccc2s1)[C@H](C)O experimental_result="32.4 µM (inactive)"
compound=COC(=O)c1ccccc1C#CCCCOS(C)(=O)=O experimental_result="> 10 µM (inactive)"
compound="O=C1CC23CCCCCCCCCCC2(C1)CC(=O)C3 (stereo unspecified)" experimental_result="30.1 µM (inactive)"
compound=CCOC(C[C@H](O)[C@H]1COC(=S)S1)OCC experimental_result="> 100 µM (inactive)"
compound=CCOc1ccc([Se][Se]c2ccc(OCC)cc2)cc1 experimental_result="> 100 µM (inactive)"
compound=C=C(C(=O)O)[C@@H]1C[C@@H](OC(C)=O)[C@]2(C)CC/C=C(\C)CCC[C@H](C)[C@H](O)[C@@H]1O2 experimental_result="45.5 µM (inactive)"

* * *

System: SN12C
assay.details: NCI tumour cell line growth inhibition, 48 h
Active and inactive are the calls of the source. Cut-off read from the data, not from the text of the source: active = GI50 up to about 1.1 µM and inactive = higher.
Classes used: active, inactive

compound=O=C1c2cccc3cc([N+](=O)[O-])cc(c23)C(=O)N1Nc1ccc([N+](=O)[O-])cc1[N+](=O)[O-] label=inactive
compound=O=c1[nH]cc(-c2c[nH]c3ccccc23)nc1-c1c[nH]c2ccccc12 label=inactive
compound=N#C/C=C\c1ccc(-c2cc(C(F)(F)F)cc(C(F)(F)F)c2)o1 label=inactive
compound=CS(=O)(=O)c1cc(=O)c2ccccc2s1 label=inactive
compound=Cc1ccc(NCC(=O)N2CC(=O)Nc3ccccc32)c(C)c1 label=inactive
compound=Cn1c(=O)[nH]c2[nH]c3ccccc3c2c1=O label=inactive
compound=c1ccc2c(c1)CCc1[nH]c3c(c1-2)-c1ccccc1CC3 label=inactive
compound=CN1C(=O)[C@@H]2[C@@H]3c4ccccc4N[C@@H]3c3[nH]c4ccccc4c3[C@@H]2C1=O label=inactive
compound="CC(C)CC(C#CCCOC(=O)c1ccccc1)OC(=O)c1ccccc1 (stereo not given)" label=inactive
compound=CCN(CC)CCC(=O)/C=C/c1ccc(C)cc1 label=inactive
compound="NCCN1C(=O)C2C3c4ccccc4C(c4ccccc43)C2C1=O (stereo not given)" label=inactive
compound="CC(=O)Oc1c2c(c(CC=C(C)C)c3c1C(=O)C1=C[C@@H]4CC5C(C)(C)OC(C/C=C(/C)C(=O)O)(C4=O)[C@@]15O3)OC(C)(CCC=C(C)C)C=C2 (stereo not given in full)" label=active
compound=COc1ncc(C=C(C#N)C#N)c(OC)n1 label=inactive
compound=COc1ccc2[nH]c3c(c2c1)COc1ccccc1C3=O label=inactive
compound=COc1ccc(/N=C(/[N-]n2c(=O)c(C)nn(C)c2=S)N(c2ccc(OC)cc2)c2n[n+]3c(=O)c(C)nn(C)c3s2)cc1 label=inactive
compound=O=C(O)c1ccccc1NS(=O)(=O)c1ccc(Cl)cc1 label=inactive
compound=Cc1ccc(CS(=O)(=O)C/N=C2\Sc3ccccc3N\C2=C/C(=O)c2ccc(Cl)cc2)cc1 label=inactive
compound=O=C1C/C(=C\c2ccccc2)C(=O)c2ccccc2N1 label=inactive
compound=CCOC(=O)c1ccc(/N=N/c2cc(C(=O)OCC)ccc2O)cc1 label=inactive
compound=COc1cc2c(cc1OC)C(=O)/C(=C/c1ccccc1)C2 label=inactive
compound=CC(C)=C[C@H]1CCC2(OCCO2)[C@]1(C)COCc1ccccc1 label=inactive
compound="CCC(C)[C@H](NC(=O)[C@H](Cc1ccccc1)NC(=O)N(CC)c1ccccc1)C(=O)N[C@@H](CC(C)C)C(=O)OC (stereo not given in full)" label=inactive
compound=C=C1c2nc3ccccc3n2C=C(c2ccccc2)N1c1ccc(OC)cc1 label=inactive
compound=O=C(C=C1SCCS1)/C=C\c1ccc(Cl)cc1 label=inactive
compound=O=S(=O)(O)c1cccc2c(/N=N/c3c(O)ccc4ccccc34)cccc12 label=inactive

* * *

Test system: COLO 205
assay.details: NCI tumour cell line growth inhibition, 48 h
The source made the active and inactive calls. No stated cut-off is given here; in the data, active = GI50 up to about 1.1 µM and inactive = higher.
experimental.endpoint: GI50

molecule=COC1(OC)c2no[n+]([O-])c2C(OC)(OC)c2c1no[n+]2[O-] experimental_result="12.9 µM (inactive)"
molecule="COc1ccc(C(OCC2OC(n3ccc(NC(=O)c4ccccc4)nc3=O)C(O)C2O)(c2ccccc2)c2ccccc2)cc1 (stereo not given)" experimental_result="2 µM (inactive)"
molecule=O=C(O)C(Sc1ccc(Cl)cc1)Sc1ccc(Cl)cc1 experimental_result="25.9 µM (inactive)"
molecule="Nc1nc(=O)n(CC(O)CO)s1 (stereo not given)" experimental_result="> 100 µM (inactive)"
molecule=O=c1[nH]nc(-c2ccccc2)n1/N=C\CC/C=N\n1c(-c2ccccc2)n[nH]c1=O experimental_result="55 µM (inactive)"
molecule=Cc1cc(NS(=O)(=O)c2ccc(Nc3c4ccccc4nc4c(C(=O)N5CCN(CCO)CC5)cccc34)cc2)no1 experimental_result="> 100 µM (inactive)"
molecule=COP(=O)(OC)/C(=C\c1cn(C(c2ccccc2)(c2ccccc2)c2ccccc2)cn1)NC(C)=O experimental_result="84.3 µM (inactive)"
molecule="O=[N+]([O-])c1ccc2c(c1)nc(Cc1ccccc1)n2C[C@@H]1CCCN2CCCCC12 (stereo not given in full)" experimental_result="17.3 µM (inactive)"
molecule=C/C(Cl)=N/OC(=O)Nc1ccc(S(N)(=O)=O)c(C)c1 experimental_result="2.17 µM (inactive)"
molecule=CN(C)c1ccc(C=C2N=C(c3ccccc3)N(c3cc(C(=O)c4ccccc4)ccc3N3C(=O)/C(=C/c4ccc(N(C)C)cc4)N=C3c3ccccc3)C2=O)cc1 experimental_result="3.74 µM (inactive)"

* * *

Tested on: PC-3
assay.details: NCI tumour cell line growth inhibition, 48 h
Activity calls are given as the source filed them. Rule as the data show it: active = GI50 up to about 1.1 µM and inactive = higher.
experimental.endpoint: GI50

compound="COc1ccc(/C=C2\\CCC(C)c3c2nc(N)c(C#N)c3-c2ccc(OC)c(OC)c2)cc1OC (configuration not stated)" experimental_result="2.92 µM (inactive)"
compound=COc1nc(-c2cn(S(=O)(=O)c3ccc(C)cc3)c3ccc(Br)cc23)cc(C(F)(F)F)c1C#N experimental_result="47.4 µM (inactive)"
compound="O=C(CNC(=O)OCc1ccccc1)NCCCCC(NC(=O)OCc1ccccc1)C(=O)O (configuration not stated)" experimental_result="> 100 µM (inactive)"
compound=CCOC(=O)N1CCN(Cc2cc(=O)n3ccc(C)cc3n2)CC1 experimental_result="> 100 µM (inactive)"
compound=CCNc1ncnc2sc(SCc3ccccc3)nc12 experimental_result="38.5 µM (inactive)"
compound=[N-]=[N+]=CC(=O)CCC(=O)N(c1ccccc1)c1ccccc1 experimental_result="> 10 µM (inactive)"
compound=CCOC(=O)c1nc2ccccc2nc1NCc1ccc(OC)c(OC)c1 experimental_result="> 100 µM (inactive)"
compound=COP(=O)(OC)/C(=C\c1cn(C(c2ccccc2)(c2ccccc2)c2ccccc2)cn1)NC(C)=O experimental_result="> 100 µM (inactive)"
compound=CN(C)c1ccc(/C=c2/c3ccccc3n3nc4ccccc4c23)cc1 experimental_result="8.04 µM (inactive)"
compound="Cc1cc(S(=O)(=O)NC2=Nc3ccccc3C(c3ccccc3)N2)c(S)cc1Cl (configuration not stated)" experimental_result="16.4 µM (inactive)"
compound=O=C(/C=C/c1ccccc1)Nc1ccccc1SCCCCl experimental_result="9.91 µM (inactive)"
compound=N/C(=N/c1ccc(O)cc1)S(=O)(=O)O experimental_result="> 100 µM (inactive)"
compound=CCN(CC)C(=S)SS(=O)(=O)c1ccccc1C(=O)O experimental_result="> 100 µM (inactive)"
compound="COc1cccc2ccc3c(c12)C(=O)OC31CCc2c(C)cccc21 (configuration not stated)" experimental_result="15.6 µM (inactive)"
compound=N=C(N)c1ccc(/C=C/c2ccc(C(=N)N)cc2)cc1 experimental_result="64.9 µM (inactive)"
compound=Cc1nnc2sc(Cc3cnc(N)s3)nn12 experimental_result="> 100 µM (inactive)"
compound=N#Cc1ccccc1C#C/C=C\C#Cc1ccccn1 experimental_result="13.7 µM (inactive)"
compound="C=C1C(=O)O[C@@H]2[C@H]1C[C@@H](O)[C@H](C)[C@@](O)(C(=O)/C=C/C)[C@H]2OC(=O)C(C)CC (some centres not stated)" experimental_result="16.5 µM (inactive)"
compound="CC1(C)Oc2ccc3ccc(=O)oc3c2C(O)C1O (configuration not stated)" experimental_result="31.6 µM (inactive)"
compound="CNC(=O)NC(CCCCNC(=O)OCc1ccccc1)C(=O)OCc1ccccc1 (configuration not stated)" experimental_result="45.1 µM (inactive)"
compound=N#Cc1c(N)c2c(c(-c3ccccc3)c1-c1ccccc1)C(=O)N(N)C2=O experimental_result="74.6 µM (inactive)"
compound="O=C(Nc1ccn(C2CC(I)C(COC(c3ccccc3)(c3ccccc3)c3ccccc3)O2)c(=O)n1)c1ccccc1 (configuration not stated)" experimental_result="2.36 µM (inactive)"
compound=C[C@H](CCC(=O)NCCS(=O)(=O)O)[C@H]1CC[C@H]2[C@@H]3[C@H](O)C[C@@H]4C[C@H](O)CC[C@]4(C)[C@H]3CC[C@]12C experimental_result="> 100 µM (inactive)"
compound="O=[N+]([O-])c1ccc(N2N=C(c3ccc4ccccc4c3O)CC2c2ccc(Cl)cc2)c([N+](=O)[O-])c1 (configuration not stated)" experimental_result="23.8 µM (inactive)"
compound="O=C1c2ccccc2CCC1C(O)(C(F)(F)F)C(F)(F)F (configuration not stated)" experimental_result="> 100 µM (inactive)"
compound=CC(=O)OC1=C(c2ccccc2)S(=O)(=O)c2ccccc21 experimental_result="> 100 µM (inactive)"
compound=Cc1cccc(C)c1NC(=S)N/C=C(\C#N)C(N)=O experimental_result="> 100 µM (inactive)"
compound=COc1ccc2c(c1)C/C(=C\c1cccc3ccccc13)C2=O experimental_result="16.2 µM (inactive)"
compound="COC(=O)/C(=N\\NC(=S)NN)C(C(=O)OC)C(=O)C(=O)Nc1cccc(C(F)(F)F)c1 (configuration not stated)" experimental_result="> 100 µM (inactive)"
compound=O=C1NC(=S)N/C1=C\c1ccc(Br)s1 experimental_result="94.2 µM (inactive)"
compound=Nc1nn2c(nc(N)c3c(N)n[nH]c32)c1/N=N\c1ccc(Br)cc1 experimental_result="> 100 µM (inactive)"
compound=Clc1ccc(-c2cn3c(nc4ccccc43)c(/C=C/c3cccs3)n2)cc1 experimental_result="44.9 µM (inactive)"
